- System: coagulation in rat plasma
- procedure-summary: aPTT in rat plasma after rectal application
- Format: in vivo
- measurement-parameters: rectal 5 mg/kg, 0 min
measurement-type: Clotting time, aPTT (s)
Write the value in s as a bare number.

# example entries with known answers
[
  {
    "chemical-structure": "Cl.Cl.N=C(N)c1cccc(C[C@H](NS(=O)(=O)c2ccc3ccccc3c2)C(=O)N2CCN(CCO)CC2)c1",
    "unit-info": "s",
    "result-value": 23.5
  },
  {
    "chemical-structure": "CN(C)C(=O)N1CCN(C(=O)[C@H](Cc2cccc(C(=N)N)c2)NS(=O)(=O)c2ccc3ccccc3c2)CC1",
    "unit-info": "s",
    "result-value": 22.3
  },
  {
    "chemical-structure": "CS(=O)(=O)N1CCN(C(=O)[C@H](Cc2cccc(C(=N)N)c2)NS(=O)(=O)c2ccc3ccccc3c2)CC1.Cl",
    "unit-info": "s",
    "result-value": 21.2
  }
]

Consider the record given below.
Reported Clotting time, aPTT for CC(=O)N1CCN(C(=O)[C@H](Cc2cccc(C(=N)N)c2)NS(=O)(=O)c2ccc3ccccc3c2)CC1.Cl was 22.5

###

- procedure-summary: plasma level in the stasis-induced thrombosis study, rectal application
- Format: in vivo
- measurement-parameters: rat, rectal 20 mg/kg, 30 min
measurement-type: concentration at 0.5 h (ng/mL)
Reply with just the number (in ng/mL).

In plain terms, CC(=O)N1CCN(C(=O)[C@H](Cc2cccc(C(=N)N)c2)NS(=O)(=O)c2ccc3ccccc3c2)CC1.Cl has a documented concentration at 0.5 h of 1620

###

- Tested on: coagulation in rat plasma
- procedure-summary: aPTT in rat plasma after rectal application
- Assay type: in vivo
- measurement-parameters: rectal 5 mg/kg, 120 min
The following compounds are shown together with reported Clotting time, aPTT values.
The answer is to be given in s; state only the numeric part.

[
  {
    "chemical-structure": "CS(=O)(=O)N1CCN(C(=O)[C@H](Cc2cccc(C(=N)N)c2)NS(=O)(=O)c2ccc3ccccc3c2)CC1.Cl",
    "measurement-type": "Clotting time, aPTT",
    "result-value": 27.5
  }
]

For this compound ( CN(C)C(=O)N1CCN(C(=O)[C@H](Cc2cccc(C(=N)N)c2)NS(=O)(=O)c2ccc3ccccc3c2)CC1 ), measured Clotting time, aPTT is 28.4

# compound CC(=O)N1CCN(C(=O)[C@H](Cc2cccc(C(=N)N)c2)NS(=O)(=O)c2ccc3ccccc3c2)CC1.Cl ; its Clotting time, aPTT = 30

What the record says about Cl.Cl.N=C(N)c1cccc(C[C@H](NS(=O)(=O)c2ccc3ccccc3c2)C(=O)N2CCN(CCO)CC2)c1 : Clotting time, aPTT is 27.4

###

- procedure-summary: concentration in rat plasma in the anticoagulant study after rectal application
- Type: in vivo
- measurement-parameters: plasma, rectal 5 mg/kg, 30 min
measurement-type: concentration at 0.5 h (ng/mL)
Expressed in ng/mL, but write only the number.

[
  {
    "chemical-structure": "Cl.Cl.N=C(N)c1cccc(C[C@H](NS(=O)(=O)c2ccc3ccccc3c2)C(=O)N2CCN(CCO)CC2)c1",
    "unit-info": "ng/mL",
    "result-value": 897
  },
  {
    "chemical-structure": "CS(=O)(=O)N1CCN(C(=O)[C@H](Cc2cccc(C(=N)N)c2)NS(=O)(=O)c2ccc3ccccc3c2)CC1.Cl",
    "unit-info": "ng/mL",
    "result-value": 168
  },
  {
    "chemical-structure": "CN(C)C(=O)N1CCN(C(=O)[C@H](Cc2cccc(C(=N)N)c2)NS(=O)(=O)c2ccc3ccccc3c2)CC1",
    "unit-info": "ng/mL",
    "result-value": 648
  }
]

Turning to the following compound.
The compound identified as CC(=O)N1CCN(C(=O)[C@H](Cc2cccc(C(=N)N)c2)NS(=O)(=O)c2ccc3ccccc3c2)CC1.Cl registered its concentration at 0.5 h at 296

###

- tested-on: thrombin (Bos taurus, UniProt P00735)
- procedure-summary: biochemical
Counter-ions that a name gives are not always drawn.
measurement-type: Ki (nM)
API: value field is a number in nM; no unit string.

In the examples that follow, each entry is paired with its recorded Ki.
[
  {
    "molecule": "Cc1c(C)c(S(=O)(=O)N[C@@H](Cc2cccc(C(=N)N)c2)C(=O)N2CCN(S(C)(=O)=O)CC2)c(C)c2c1OC(C)(C)CC2 [Compound 10, hydrochloride]",
    "result-value": 5.3
  },
  {
    "molecule": "Cl.Cl.N=C(N)c1cccc(C[C@H](NS(=O)(=O)c2ccc3ccccc3c2)C(=O)N2CCN(CCO)CC2)c1 [Compound 3, dihydrochloride]",
    "result-value": 36
  }
]

Entry N=C(N)c1cccc(CC(NS(=O)(=O)c2ccc3ccccc3c2)C(=O)N2CCN(C(=O)C3CCC3)CC2)c1 (stereo not drawn) , Ki reported as 2500

###

- tested-on: trypsin (Bos taurus, UniProt P00760)
- Sequence (P00760 24-246): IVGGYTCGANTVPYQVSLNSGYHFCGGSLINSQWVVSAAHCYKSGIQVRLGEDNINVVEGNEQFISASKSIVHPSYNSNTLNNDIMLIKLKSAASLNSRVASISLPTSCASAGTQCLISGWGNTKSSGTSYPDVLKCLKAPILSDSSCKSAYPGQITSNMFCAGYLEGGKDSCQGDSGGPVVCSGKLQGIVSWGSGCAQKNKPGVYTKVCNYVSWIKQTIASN
- procedure-summary: inhibition of trypsin, dissociation constant Ki
- Type: biochemical
- Parameters: thrombin and the related enzymes trypsin, plasmin, factor Xa, factor XIIa
- Procedure: The biological activity of the compounds of the present invention was determined in vitro as well as in vivo.
measurement-type: Ki (nM)
State the answer as a number, implicitly in nM.

Short answer on trypsin (Bos taurus, UniProt P00760) for CC(=O)N1CCN(C(=O)[C@H](Cc2cccc(C(=N)N)c2)NS(=O)(=O)c2ccc3ccccc3c2)CC1.Cl [Compound 2, hydrochloride] , Ki: 44

###

- Test system: coagulation in human plasma
- procedure-summary: thrombin time (TT) in human plasma
Answer 0.0 if Concentr. to double the Thrombin time is under 0.1 µmol/L, and 1.0 if it is 0.1 µmol/L or more.

Please review the following examples before continuing.
[
  {
    "molecule": "CCOC(=O)N1CCN(C(=O)C(Cc2cccc(C(=N)N)c2)NS(=O)(=O)c2ccc3ccccc3c2)CC1 (racemic) [X, reference compound]",
    "answer-label": 1.0
  },
  {
    "molecule": "Cl.Cl.N=C(N)c1cccc(C[C@H](NS(=O)(=O)c2ccc3ccccc3c2)C(=O)N2CCN(CCO)CC2)c1",
    "answer-label": 1.0
  },
  {
    "molecule": "COc1cc(C)c(S(=O)(=O)N[C@@H](Cc2cccc(C(=N)N)c2)C(=O)N2CCN(S(C)(=O)=O)CC2)c(C)c1C",
    "answer-label": 1.0
  },
  {
    "molecule": "CC(=O)N1CCN(C(=O)[C@H](Cc2cccc(C(=N)N)c2)NS(=O)(=O)c2ccc3ccccc3c2)CC1.Cl",
    "answer-label": 0.0
  },
  {
    "molecule": "CC(=O)N1CCN(C(=O)C(Cc2cccc(C(=N)N)c2)NS(=O)(=O)c2ccc3c(c2)C(=O)c2ccccc2C3=O)CC1 (centres unmarked)",
    "answer-label": 0.0
  },
  {
    "molecule": "CS(=O)(=O)N1CCN(C(=O)[C@H](Cc2cccc(C(=N)N)c2)NS(=O)(=O)c2ccc3ccccc3c2)CC1.Cl",
    "answer-label": 0.0
  }
]

API: the following record is the query input.
Say whether CC(=O)N1CCN(C(=O)C(Cc2cccc(C(=N)N)c2)NS(=O)(=O)c2ccc3ccccc3c2)CC1 (centres unmarked) shows Concentr. to double the Thrombin time of 0.1 µmol/L or more.
0.0

###

Listed here are molecules together with their documented concentration at 2 h.
- procedure-summary: concentration in rat plasma in the anticoagulant study after rectal application
- Type: in vivo
- measurement-parameters: plasma, rectal 5 mg/kg, 120 min
Express the result in ng/mL but write the number alone.

[
  {
    "chemical-structure": "CC(=O)N1CCN(C(=O)[C@H](Cc2cccc(C(=N)N)c2)NS(=O)(=O)c2ccc3ccccc3c2)CC1.Cl",
    "unit-info": "ng/mL",
    "result-value": 60
  }
]

What the record says about Cl.Cl.N=C(N)c1cccc(C[C@H](NS(=O)(=O)c2ccc3ccccc3c2)C(=O)N2CCN(CCO)CC2)c1 : concentration at 2 h is 355

Consider CN(C)C(=O)N1CCN(C(=O)[C@H](Cc2cccc(C(=N)N)c2)NS(=O)(=O)c2ccc3ccccc3c2)CC1 . Its measured concentration at 2 h is 157

Entry CS(=O)(=O)N1CCN(C(=O)[C@H](Cc2cccc(C(=N)N)c2)NS(=O)(=O)c2ccc3ccccc3c2)CC1.Cl — recorded concentration at 2 h = 82

###

- tested-on: factor XIIa (Homo sapiens, UniProt P00748)
- Sequence (P00748 373-615 limits assumed): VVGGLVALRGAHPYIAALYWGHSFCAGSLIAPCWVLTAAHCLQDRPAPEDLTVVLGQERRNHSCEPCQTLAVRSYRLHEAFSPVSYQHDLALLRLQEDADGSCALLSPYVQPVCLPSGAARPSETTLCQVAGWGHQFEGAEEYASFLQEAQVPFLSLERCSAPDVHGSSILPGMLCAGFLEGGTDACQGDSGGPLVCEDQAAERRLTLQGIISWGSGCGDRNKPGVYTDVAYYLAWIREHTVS
- procedure-summary: inhibition of factor XIIa, dissociation constant Ki
Note to self: use label 1 only for Ki readings below 300 µM; a reading exactly at 300 µM still gets label 0.

Sample answers from the record:
[
  {
    "molecule": "CS(=O)(=O)N1CCN(C(=O)C(Cc2cccc(C(=N)N)c2)NS(=O)(=O)c2ccc3ccccc3c2)CC1 (stereo not shown)",
    "tested-on": "factor XIIa (Homo sapiens, UniProt P00748)",
    "answer-label": "label 1"
  },
  {
    "molecule": "CC(=O)N1CCN(C(=O)C(Cc2cccc(C(=N)N)c2)NS(=O)(=O)c2c(C)c(C)c3c(c2C)CCC(C)(C)O3)CC1 (stereo not shown)",
    "tested-on": "factor XIIa (Homo sapiens, UniProt P00748)",
    "answer-label": "label 0"
  },
  {
    "molecule": "COc1cc(C)c(S(=O)(=O)N[C@@H](Cc2cccc(C(=N)N)c2)C(=O)N2CCN(S(C)(=O)=O)CC2)c(C)c1C",
    "tested-on": "factor XIIa (Homo sapiens, UniProt P00748)",
    "answer-label": "label 0"
  },
  {
    "molecule": "CCCCCC(=O)N1CCN(C(=O)C(Cc2cccc(C(=N)N)c2)NS(=O)(=O)c2ccc3ccccc3c2)CC1 (stereo not shown)",
    "tested-on": "factor XIIa (Homo sapiens, UniProt P00748)",
    "answer-label": "label 1"
  },
  {
    "molecule": "N=C(N)c1cccc(CC(NS(=O)(=O)c2ccc3ccccc3c2)C(=O)N2CCN(C(=O)C3CC3)CC2)c1 (stereo not shown)",
    "tested-on": "factor XIIa (Homo sapiens, UniProt P00748)",
    "answer-label": "label 0"
  },
  {
    "molecule": "CC(=O)N1CCN(C(=O)C(Cc2cccc(C(=N)N)c2)NS(=O)(=O)c2ccc3ccccc3c2)CC1 (stereo not shown)",
    "tested-on": "factor XIIa (Homo sapiens, UniProt P00748)",
    "answer-label": "label 1"
  }
]

Now for a further molecule.
Confirm or reject: Ki of CC(=O)N1CCN(C(=O)C(Cc2cccc(C(=N)N)c2)NS(=O)(=O)c2c(C(C)C)cc(C(C)C)cc2C(C)C)CC1 (stereo not shown) lies strictly below 300 µM
label 1

The reported measurements were obtained from patent US5607937A.
